- TARGET SYSTEM: B-Raf^WT (Homo sapiens, UniProt P15056)
- Sequence (P15056 433-726): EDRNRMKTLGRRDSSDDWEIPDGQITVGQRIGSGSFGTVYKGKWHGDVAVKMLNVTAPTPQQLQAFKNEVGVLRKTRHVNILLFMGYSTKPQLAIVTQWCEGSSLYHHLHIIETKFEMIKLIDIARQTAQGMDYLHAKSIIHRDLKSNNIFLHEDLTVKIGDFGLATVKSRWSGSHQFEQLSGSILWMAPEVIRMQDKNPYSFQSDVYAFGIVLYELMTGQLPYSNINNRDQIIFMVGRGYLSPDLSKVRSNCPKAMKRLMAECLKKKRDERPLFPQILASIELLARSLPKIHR
- ASSAY PROTOCOL: In vitro B-Raf kinase assay
- Assay type: biochemical
- RUN PARAMETERS: read-out: Inhibition rate (%) B-Raf
What inhibition at 2 µM was measured for each of the following?
Quick reminder: number only, in %, skip the unit.

IN: May I ask what inhibition at 2 µM has been recorded for CC(C)(C)c1ccc(-c2ccc(C=C3SC(=O)NC3=O)o2)cc1 [Compound 19i] ?
OUT: 17

IN: May I ask what inhibition at 2 µM has been recorded for Cc1ccc(-c2ccc(C=C3C(=O)NC(=S)NC3=O)o2)cc1 [Compound 22g] ?
OUT: 17

IN: May I ask what inhibition at 2 µM has been recorded for O=C1NC(=S)NC(=O)C1=Cc1ccc(-c2ccc(Cl)cc2)o1 [Compound 22e] ?
OUT: 15

IN: May I ask what inhibition at 2 µM has been recorded for COc1ccc(-c2ccc(C=C3SC(=O)NC3=O)o2)cc1 [Compound 19h] ?
OUT: 3
